src = patent US11021532

Molecular target: SARS-CoV-2 Receptor Binding Domain (RBD) protein (SARS-CoV-2)
Test: SPR (Carterra LSA), scFv captured via anti-V5, RBD as analyte, 1:1 fit

binder: COVID19_P11_H07 (scFv, V domains shown) VH: QVQLVQSGAEVKKPGASVKVSCKASGYTFTSYDINWVRQAPGQGLEWMGWMNSNSGSTGYAQKFQGRVTMTRDTSTSTVYMELSSLRSEDTAVYYCARGWMAYDAFDIWGQGTMVTVSS VL: DIQMTQSPSSLSASVGDRVTITCQASQSIYNYLNWYQQKPGKAPKLLIYDASNLETGVPSRFSGSGSGTDFTLTISSLQPEDFATYYCQQAISFPLTFGGGTKVEIKR
unitOfMeasurement: M⁻¹ s⁻¹
kon: 110000

binder: COVID19_P24_B09 (scFv, V domains shown) VH: QVQLVQSGAEVKKPGSSVYVSCKASGYTFTSYGISWVRQAPGQGLEWMGGIIPMFGTTNYAQKFQGRVTITADKSTSTAYMELSSLRSEDTAVYYCARDRGDTIDYWGQGTLVTVSS VL: DIQMTQSPSSLSASVGDRVTITCRASQGISNNLNWYQQKPGKAPKLLIYAASSLESGVPSRFSGSGSGTDFTLTISSLQPEDFATYYCQQGNGFPLTFGPGTKVDIKR
unitOfMeasurement: M⁻¹ s⁻¹
kon: 508000

binder: COVID19_P24_C06 (scFv, V domains shown) VH: QVQLVQSGAEVKKPGASVKVSCKASGYIFTSYPIHWVRQAPGQGLEWMGWMNPNSGNTGYAQKFQGRVTMTRDTSTSTVYMELSSLRSEDTAVYYCARDRGSYDTDAFDIWGQGTMVTVSS VL: DIQMTQSPSSLSASVGDRVTITCRASQDISNYLNWYQQKPGKAPKLLIYAASNLQSGVPSRFSGSGSGTDFTLTISSLQPEDFATYYCQQANSFPSTFGQGTKLEIKR
unitOfMeasurement: M⁻¹ s⁻¹
kon: 228000
